# Kd annotations
# measuredOn: T1, recombinant extracellular domain of CD47 (UniProt Q08722 19-139, limits assumed)
# T1 construct: extracellular domain; Analyte flowed over the captured antibodies in SPR; also called CD47-ECD
# methodNotes: SPR; antibody captured on anti-human Fc, CD47-ECD flowed 0-100 nM; 1:1 Langmuir
resultType: Kd

[
  {
    "binder": "Ab1119/Ab480 (antibody, V domains shown, Variant of AbParental; also called LC Ab1119 / HC Ab480) VH: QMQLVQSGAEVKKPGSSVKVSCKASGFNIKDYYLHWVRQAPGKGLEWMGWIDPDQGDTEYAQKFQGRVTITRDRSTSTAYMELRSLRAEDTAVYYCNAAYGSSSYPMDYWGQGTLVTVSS VL: NIQMTQSPSSLSASVGDRVTITCRASQDIHRYLSWFQQKPGKVPKHLIYRANRLVSGVPSRFSGSGSGTEFTLTISSLQPEDFATYYCLQYDEFPYTFGGGTKVEIK",
    "reportedResult": "0.564 nM"
  },
  {
    "binder": "Ab1119/Ab170 (antibody, V domains shown, Variant of AbParental; also called LC Ab1119 / HC Ab170) VH: QMQLVQSGAEVKKPGSSVKVSCKASGFNIKDYYLHWVRQAPGKGLEWMGWIDPDQGDTEYAQKFQGRVTITRDRSTSTAYMELRSLRSEDTAVYYCNAAYGSSSYPMDYWGQGTTVTVSS VL: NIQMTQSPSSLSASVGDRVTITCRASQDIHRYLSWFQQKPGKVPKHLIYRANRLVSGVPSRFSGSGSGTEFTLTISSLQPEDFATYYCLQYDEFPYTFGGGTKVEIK",
    "reportedResult": "0.562 nM"
  },
  {
    "binder": "Ab356/Ab1121 (antibody, V domains shown, FR and CDR L2 variant; Label printed HC first; the entry in numeric order (r442) is used; also called HC Ab356 / LC Ab1121) VH: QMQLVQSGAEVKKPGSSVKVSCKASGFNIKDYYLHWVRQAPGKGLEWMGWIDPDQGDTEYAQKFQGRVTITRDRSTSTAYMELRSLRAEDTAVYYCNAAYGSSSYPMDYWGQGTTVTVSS VL: NIQMTQSPSSLSASVGDRVTITCRASQDIHRYLSWFQQKPGKVPKHLIYRYIRFVDGVPSRFSGSGSGTEFTLTISSLQPEDFATYYCLQYDEFPYTFGGGTKVEIK",
    "reportedResult": "1.08 nM"
  }
]
